Values from patent US8835375B2

Assay: proteolytic resistance in pig liver homogenate
Assay type: in vitro ADME
Settings: pig, tissue homogenate, pH 7.4, 37° C.

COMPOUND: CC[C@H](C)[C@@H]1NC(=O)[C@H](NC(=O)[C@@H](NC(=O)[C@H](CCCNC(=N)N)NC(=O)[C@@H](N)CC(=O)O)C(C)C)CSC[C@@H](C(=O)O)NC(=O)[C@H](Cc2c[nH]cn2)NC1=O [[Cyc^4-7]Ang(1-7), Asp-Arg-Val-Ala-Ile-His-Ala]
half-life: 1.13 h

* * *

Assay: proteolytic resistance in pig liver homogenate
Type: in vitro ADME
Settings: pig, pig liver homogenate, pH 5.0, 37° C.
EXPERIMENTAL ENDPOINT: half-life at 0.2 μmol/mg liver homogenate

COMPOUND: CC[C@H](C)[C@H](NC(=O)[C@H](Cc1ccc(O)cc1)NC(=O)[C@@H](NC(=O)[C@H](CCCNC(=N)N)NC(=O)[C@@H](N)CC(=O)O)C(C)C)C(=O)N[C@@H](Cc1c[nH]cn1)C(=O)N1CCC[C@H]1C(=O)O [Ang(1-7), DRVYIHP, reference compound]
OBSERVED VALUE: 2.55 h

* * *

Experiment: proteolytic resistance in pig kidney homogenate
Format: in vitro ADME
Conditions: pig, pig kidney homogenate, pH 5.0, 37° C., read-out: Degradation after 3 h (%)
Measured metabolised at 3 h, 0.2 μmol angiotensin/mg kidney homogenate, listed per entry.
EXPERIMENTAL ENDPOINT: metabolised at 3 h, 0.2 μmol angiotensin/mg kidney homogenate

COMPOUND: CC[C@H](C)[C@@H]1NC(=O)[C@H](NC(=O)[C@@H](NC(=O)[C@H](CCCNC(=N)N)NC(=O)[C@@H](N)CC(=O)O)C(C)C)CSC[C@@H](C(=O)O)NC(=O)[C@H](Cc2c[nH]cn2)NC1=O [[Cyc^4-7]Ang(1-7), Asp-Arg-Val-Ala-Ile-His-Ala]
OBSERVED VALUE: 4%
//
COMPOUND: CC[C@H](C)[C@H](NC(=O)[C@H](Cc1ccc(O)cc1)NC(=O)[C@@H](NC(=O)[C@H](CCCNC(=N)N)NC(=O)[C@@H](N)CC(=O)O)C(C)C)C(=O)N[C@@H](Cc1c[nH]cn1)C(=O)N1CCC[C@H]1C(=O)O [Ang(1-7), DRVYIHP, reference compound]
OBSERVED VALUE: 98%

* * *

Test: proteolytic resistance in pig pancreas homogenate
Assay type: in vitro ADME
Settings: pig, pH 7.4, 37° C.
EXPERIMENTAL ENDPOINT: half-life (min)

COMPOUND: CC[C@H](C)[C@@H]1NC(=O)C(NC(=O)[C@@H](NC(=O)[C@H](CCCNC(=N)N)NC(=O)[C@@H](N)CC(=O)O)C(C)C)C(C)SC[C@@H](C(=O)N[C@@H](Cc2ccccc2)C(=O)O)NC(=O)[C@H](Cc2c[nH]cn2)NC1=O (stereo partly drawn) [[Cyc^4-7]Ang(1-8), Asp-Arg-Val-Abu-Ile-His-Ala-Phe]
OBSERVED VALUE: 483

* * *

Assay: proteolytic resistance in pig liver homogenate
Assay type: in vitro ADME
Details: pig, pig liver homogenate, pH 5.0, 37° C., read-out: Degradation after 3 h (%)
EXPERIMENTAL ENDPOINT: metabolised at 3 h, 0.2 μmol angiotensin/mg liver homogenate (%)

COMPOUND: CC[C@H](C)[C@@H]1NC(=O)[C@H](NC(=O)[C@@H](NC(=O)[C@H](CCCNC(=N)N)NC(=O)[C@@H](N)CC(=O)O)C(C)C)CSC[C@@H](C(=O)O)NC(=O)[C@H](Cc2c[nH]cn2)NC1=O [[Cyc^4-7]Ang(1-7), Asp-Arg-Val-Ala-Ile-His-Ala]
OBSERVED VALUE: 8

COMPOUND: CC[C@H](C)[C@H](NC(=O)[C@H](Cc1ccc(O)cc1)NC(=O)[C@@H](NC(=O)[C@H](CCCNC(=N)N)NC(=O)[C@@H](N)CC(=O)O)C(C)C)C(=O)N[C@@H](Cc1c[nH]cn1)C(=O)N1CCC[C@H]1C(=O)O [Ang(1-7), DRVYIHP, reference compound]
OBSERVED VALUE: 56

* * *

Assay: proteolytic resistance in pig pancreas homogenate
Format: in vitro ADME
Conditions: pig, pig pancreas homogenate, pH 7.4, 37° C., read-out: Degradation after 3 h (%)
Procedure: Angiotensin (wildtype or cyclised analogs, chemically produced [Cyc 4-7] Ang(1-7) or biologically produced [Cyc 4-7] Ang(1-8)) was added to homogenates of pig liver (0.2 μmol angiotensin/mg liver homogenate), pig kidney (0.2 μmol angiotensin/mg kidney homogenate), pig pancreas (0.8 μmol angiotensin/mg pancreas homogenate) or plasma (1 μmol angiotensin/ml) and incubated at 37° C., pH 7.4 or pH 5, for different time periods up to 30 hours. The enzymatic reaction was stopped by 100° C. for 5 min. […]
This section presents compounds with their documented metabolised at 3 h, 0.8 μmol angiotensin/mg pancreas homogenate values.
EXPERIMENTAL ENDPOINT: metabolised at 3 h, 0.8 μmol angiotensin/mg pancreas homogenate (%)

COMPOUND: CC[C@H](C)[C@H](NC(=O)[C@H](Cc1ccc(O)cc1)NC(=O)[C@@H](NC(=O)[C@H](CCCNC(=N)N)NC(=O)[C@@H](N)CC(=O)O)C(C)C)C(=O)N[C@@H](Cc1c[nH]cn1)C(=O)N1CCC[C@H]1C(=O)O [Ang(1-7), DRVYIHP, reference compound]
UNIT ABBREV: %
OBSERVED VALUE: 81
--
COMPOUND: CC[C@H](C)[C@H](NC(=O)[C@H](Cc1ccc(O)cc1)NC(=O)[C@@H](NC(=O)[C@H](CCCNC(=N)N)NC(=O)[C@@H](N)CC(=O)O)C(C)C)C(=O)N[C@@H](Cc1cnc[nH]1)C(=O)N1CCC[C@H]1C(=O)N[C@@H](Cc1ccccc1)C(=O)O [Ang(1-8), Asp-Arg-Val-Tyr-Ile-His-Pro-Phe, reference compound]
UNIT ABBREV: %
OBSERVED VALUE: 70
--
COMPOUND: CC[C@H](C)[C@@H]1NC(=O)C(NC(=O)[C@@H](NC(=O)[C@H](CCCNC(=N)N)NC(=O)[C@@H](N)CC(=O)O)C(C)C)C(C)SC[C@@H](C(=O)N[C@@H](Cc2ccccc2)C(=O)O)NC(=O)[C@H](Cc2c[nH]cn2)NC1=O (stereo partly drawn) [[Cyc^4-7]Ang(1-8), Asp-Arg-Val-Abu-Ile-His-Ala-Phe]
UNIT ABBREV: %
OBSERVED VALUE: 21
--
COMPOUND: CC[C@H](C)[C@@H]1NC(=O)[C@H](NC(=O)[C@@H](NC(=O)[C@H](CCCNC(=N)N)NC(=O)[C@@H](N)CC(=O)O)C(C)C)CSC[C@@H](C(=O)O)NC(=O)[C@H](Cc2c[nH]cn2)NC1=O [[Cyc^4-7]Ang(1-7), Asp-Arg-Val-Ala-Ile-His-Ala]
UNIT ABBREV: %
OBSERVED VALUE: 4

* * *

Experiment: proteolytic resistance in pig kidney homogenate
Type: in vitro ADME
Conditions: pig, pig kidney homogenate, pH 7.4, 37° C.
EXPERIMENTAL ENDPOINT: half-life at 0.2 μmol/mg kidney homogenate

COMPOUND: CC[C@H](C)[C@H](NC(=O)[C@H](Cc1ccc(O)cc1)NC(=O)[C@@H](NC(=O)[C@H](CCCNC(=N)N)NC(=O)[C@@H](N)CC(=O)O)C(C)C)C(=O)N[C@@H](Cc1c[nH]cn1)C(=O)N1CCC[C@H]1C(=O)O [Ang(1-7), DRVYIHP, reference compound]
OBSERVED VALUE: 5 min

* * *

Experiment: proteolytic resistance in pig pancreas homogenate
Type: in vitro ADME
Settings: pig, pig pancreas homogenate, pH 7.4, 37° C.
EXPERIMENTAL ENDPOINT: half-life at 0.8 μmol/mg pancreas homogenate

COMPOUND: CC[C@H](C)[C@H](NC(=O)[C@H](Cc1ccc(O)cc1)NC(=O)[C@@H](NC(=O)[C@H](CCCNC(=N)N)NC(=O)[C@@H](N)CC(=O)O)C(C)C)C(=O)N[C@@H](Cc1c[nH]cn1)C(=O)N1CCC[C@H]1C(=O)O [Ang(1-7), DRVYIHP, reference compound]
OBSERVED VALUE: 1.35 h

* * *

Assay: proteolytic resistance in pig liver homogenate
Assay type: in vitro ADME
Details: pig, pig liver homogenate, pH 7.4, 37° C.
Protocol: Angiotensin (wildtype or cyclised analogs, chemically produced [Cyc 4-7] Ang(1-7) or biologically produced [Cyc 4-7] Ang(1-8)) was added to homogenates of pig liver (0.2 μmol angiotensin/mg liver homogenate), pig kidney (0.2 μmol angiotensin/mg kidney homogenate), pig pancreas (0.8 μmol angiotensin/mg pancreas homogenate) or plasma (1 μmol angiotensin/ml) and incubated at 37° C., pH 7.4 or pH 5, for different time periods up to 30 hours. The enzymatic reaction was stopped by 100° C. for 5 min. […]
EXPERIMENTAL ENDPOINT: half-life at 0.2 μmol/mg liver homogenate (min)

MOLECULE: CC[C@H](C)[C@H](NC(=O)[C@H](Cc1ccc(O)cc1)NC(=O)[C@@H](NC(=O)[C@H](CCCNC(=N)N)NC(=O)[C@@H](N)CC(=O)O)C(C)C)C(=O)N[C@@H](Cc1c[nH]cn1)C(=O)N1CCC[C@H]1C(=O)O [Ang(1-7), DRVYIHP, reference compound]
OBSERVED VALUE: 32
